From: PubChem BioAssay (NCATS)

tested_target: Glucocorticoid receptor (Homo sapiens)
procedure_text: qHTS assay for small molecule antagonists of glucocorticoid receptor signaling (AID 588533);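 also: cells stimulated with 2 nM dexamethasone as agonist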
condition_notes: HeLa MMTV-bla, GRE beta-lactamase ratio, antagonist mode, 18 h; series mostly up to 76.8 µM
Inconclusive results are not listed. Calls of active or inactive are those of the source. Calls follow the shape of the dose curve; as a rule, active = well fitted inhibition curve with a large enough effect in the signal ratio, with a control signal flat (not every such curve was filed as active); inconclusive = small, poorly fitted or top-dose-only effect, or effect the other way, or a change in a side signal; inactive = flat fitted curve, though single readings scatter; the % refers to the signal ratio.
Possible outcomes: active, inactive

molecule: COc1cc(OC)nc(NC(=O)NS(=O)(=O)c2ncccc2C(F)(F)F)n1
category: inactive

molecule: CCC(CC)Nc1c([N+](=O)[O-])cc(C)c(C)c1[N+](=O)[O-]
category: inactive

molecule: C=CC(=O)OCC(CC)(COC(=O)C=C)COC(=O)C=C
category: active

molecule: c1cc(OCC2CO2)cc(OCC2CO2)c1 (stereo not given)
category: inactive

molecule: CCOC(=O)C(C)OC(=O)c1cc(Oc2ccc(C(F)(F)F)cc2Cl)ccc1[N+](=O)[O-] (stereo not given)
category: inactive

molecule: CCNc1nc(NC(C)(C)C)nc(SC)n1
category: inactive

molecule: CC1(C)[C@H](C(=O)O[C@H](C#N)c2cccc(Oc3ccccc3)c2)[C@@H]1/C=C(\Cl)C(F)(F)F
category: inactive

molecule: CCC[CH2][Sn]1([CH2]CCC)[O]C(=O)C=CC(=O)[O]1
category: active

molecule: CCNc1nc(NC(C)C)nc(OC)n1
category: inactive

molecule: Clc1ccc([C@]2(Cn3cncn3)C[C@H](Br)CO2)c(Cl)c1
category: inactive

molecule: Clc1ccc(C2(Cn3cncn3)CC(Br)CO2)c(Cl)c1 (stereo not given)
category: inactive

molecule: CCCCC(C#N)(Cn1cncn1)c1ccc(Cl)cc1 (stereo not given)
category: inactive

molecule: Clc1ccc(C(Cl)(Cl)Cl)cc1
category: inactive

molecule: ClC1=C(Cl)C(Cl)(Cl)C(Cl)=C1Cl
category: inactive

molecule: CCCCC(CC)CO[N+](=O)[O-] (stereo not given)
category: inactive

molecule: CCCCCCCCCCCC#N
category: inactive

molecule: CC(C)N(C(=O)COc1nnc(C(F)(F)F)s1)c1ccc(F)cc1
category: inactive

molecule: O=c1[nH]c2ccccc2c(=O)o1
category: inactive

molecule: COc1nc(C)nc(NC(=O)NS(=O)(=O)c2ccccc2CCC(F)(F)F)n1
category: inactive

molecule: CCN(CC)C(=O)SCc1ccc(Cl)cc1
category: inactive

molecule: CCCCC(O)(Cn1cncn1)c1ccc(Cl)cc1Cl (stereo not given)
category: inactive

molecule: Oc1c(Br)c(Br)c(Br)c(Br)c1Br
category: active

molecule: CCSCCSP(=O)(OC)OC
category: inactive

molecule: C=CCC1=C(C)[C@@H](OC(=O)[C@@H]2[C@@H](C=C(C)C)C2(C)C)CC1=O
category: inactive

molecule: O=C1C=CC(=O)c2ccccc21
category: inactive
